Assay system Carbonic anhydrase 9 (Homo sapiens); read-out recorded as Ki.
Quick note: unit goes after the number.

> print(dat)
                                  compound  observed.result
1                  C#CCOc1ccc2ccc(=S)oc2c1          41.6 µM
2  O=c1ccc2cc(O)ccc2o1 [6-HYDROXYCOUMARIN]          0.19 µM
3                C#CCCCOc1ccc2ccc(=O)oc2c1          0.83 µM

Let us move to another entry and its Ki.
Q. API: value(readout= Ki, system= Carbonic anhydrase 9 (Homo sapiens), query= S=c1ccc2ccc(OCc3cn(-c4ccccc4)nn3)cc2o1 )
A. 0.004 µM
